Readout type: melting point (°C)

# annotated cases, reported melting point shown
CC(=O)c1cc2sc(N)c(C#N)c2s1 | 285
CCC(=O)Oc1cc(OC)cc(OC)c1C(=O)C=Cc1ccco1 | 93.6

[I] O=C1CC2CCCCC2C(=O)C1C(=O)c1ccc(Cl)cc1[N+](=O)[O-] (stereo not given)
[II] CCn1nc(C(C)(C)C)c2c1C(=S)NCC(c1ccccc1)=N2
Among I and II , which shows a numerically higher melting point result? Record your answer as the label of the chosen record. II

----------
Readout type: melting point

# annotated cases, reported melting point shown
Cc1nc(NC(=O)c2ccn(-c3ccccc3)c(=O)c2)sc1C(=O)NCc1ccccc1 | 260 to 262 °C
N#CCc1nc(-c2ccc(Cl)cc2)sc1-c1ccccc1 | 118 to 120 °C
CCC(CC)n1nnc2c(Nc3c(Cl)cc(OC)cc3OC)nc(C)cc21 | 168 to 169 °C
C1=C(c2ccccc2)CCN(Cc2nc3ccccc3[nH]2)C1 | 253 to 255 °C
CSc1cccc2c1Oc1ccccc1N2[Si](C)(C)C(C)(C)C | 61 to 62 °C
O=C1c2c(Cl)cccc2S(=O)(=O)N1Cn1nnn(-c2ccccc2)c1=S | 158 to 162 °C
Cc1c(Cc2ccc(C(C)C)cc2)c2c(c(C)c1NC(=O)CC(C)(C)C)C(=O)C(C)(C)O2 | 193 to 194 °C
CC(=O)OCC1SC(N2CCc3ccccc32)C(OC(C)=O)C(OC(C)=O)C1OC(C)=O (stereo not given) | 163 to 165 °C
O=C(Nc1cccnc1S(=O)(=O)c1ccccc1)N[C@@H](Cc1ccc(NC(=O)c2c(Cl)cccc2Cl)cc1)C(=O)O | 181 °C
CCCCCC(C)(C)NC(=O)CCl | 36 to 37 °C

What value of melting point has been reported for the following compound? "Brc1ccc2c(Sc3ccccc3)c[nH]c2c1" 145 to 148 °C

Then what about the compound COC(CNC(=O)C(CS)CC(C)C)OC (stereo not given) ? 34 to 37 °C

Then what about the compound CC(=O)OC1CSC(Oc2cncc(-c3ccc(C)o3)c2)C(OC(C)=O)C1OC(C)=O (stereo not given) ? 124 °C

Then what about the compound CC(O)c1ccc(CCNS(=O)(=O)c2ccccc2)cc1 (stereo not given) ? 98 to 100 °C

Then what about the compound "Cc1nc2ncnn2c(O)c1CCCOCC(C)(C)C" ? 155 to 159 °C

Then what about the compound COC(=O)c1cc2n(n1)-c1ccc(Cl)cc1C(c1ccccc1)NC2=O (stereo not given) ? 236 to 238 °C

Then what about the compound "COC(=O)c1c2ccccc2nc2ccc(Cl)cc12" ? 130 °C

Then what about the compound "CCOC(=O)c1cnn(C)c1C(=O)Nc1ccc2nc(N(C)C)nn2c1" ? 194 °C

Then what about the compound CN(CC1CCN(CC2COc3ccccc3O2)CC1)c1nc2ccccc2s1 (stereo not given) ? 125 °C

Then what about the compound Nc1c(F)c(N2CCC(C(N)c3ccco3)C2)c(F)c2c1c(=O)c(C(=O)O)cn2C1CC1F (stereo not given) ? 188 to 189 °C
